Attribution: patent US9012642B2

# key: entry, value: IC50
# System: HIV
# Assay explanation: HIV MT4 Assay (antiviral HIV activity in MT-4 cells)
# Format: cell-based
# Condition description: MT4, 96 h, read-out: MT4 (IC50)

# Compound, IC50 (nM)
records = [
    ("Cc1ccc(S(=O)(=O)n2ccc3c(-c4ccc(Cl)cc4)c(C(OC(C)(C)C)C(=O)O)n(C)c(=O)c32)cc1 (stereo not shown)", 1200),
    ("Cn1c(C(OC(C)(C)C)C(=O)O)c(-c2ccc(F)cc2)c2ccn(Cc3ccc(F)cc3)c2c1=O (stereo not shown)", 670),
    ("Cc1ccc(-c2c(C(OC(C)(C)C)C(=O)O)n(C)c(=O)c3c2ccn3C)cc1 (stereo not shown)", 1100),
    ("COc1ccc(Cn2ncc3c(-c4ccc(C)c(C)c4)c(C(OC(C)(C)C)C(=O)O)n(C)c(=O)c32)cc1 (stereo not shown)", 1200),
]

* * *

Below, each of the molecules is paired with its reported IC50 value.
# Tested on: HIV
# Assay explanation: HIV MT4 Assay (antiviral HIV activity in MT-4 cells)
# Type: cell-based
# Condition description: MT4, 96 h, read-out: MT4 (IC50)
Measured property: IC50 (nM)

# Molecule, Reported result
records = [
    ("Cc1ccc(-c2c(C(OC(C)(C)C)C(=O)O)n(C)c(=O)c3c2ccn3Cc2cccs2)cc1 (stereo not shown) [Example 25]", 220),
    ("Cc1ccc(NC(=O)Cn2ccc3c(-c4ccc(Cl)cc4)c(C(OC(C)(C)C)C(=O)O)n(C)c(=O)c32)c(O)c1 (stereo not shown) [Example 12]", 3250),
    ("Cc1c(-c2c(C(OC(C)(C)C)C(=O)O)n(C)c(=O)c3c2ccn3CC2CCCCC2)ccc2c1CCCO2 (stereo not shown) [Example 51]", 100),
    ("COCCn1ccc2c(-c3ccc4c(c3C)CCCO4)c(C(OC(C)(C)C)C(=O)O)n(C)c(=O)c21 (stereo not shown) [Example 43]", 1100),
]

* * *

# Test system: HIV
# Assay explanation: HIV MT4 Assay (antiviral HIV activity in MT-4 cells)
# Assay type: cell-based
# Condition description: MT4, 96 h, read-out: MT4 (IC50)
Reported log10 IC50 values follow for various molecules
Measured property: log10 IC50 (log10 of the value in nM)

# Molecule, Reported result
rows = [
    ("Cc1c(-c2c(C(OC(C)(C)C)C(=O)O)n(C)c(=O)c3c2cnn3Cc2ccc(F)cc2)ccc2c1CCCO2 (stereo not drawn)", 1.90),
    ("Cc1ccc(-c2c(C(OC(C)(C)C)C(=O)O)n(C)c(=O)c3c2ccn3Cc2ccccc2)cc1 (stereo not drawn)", 1.90),
    ("Cc1c(-c2c(C(OC(C)(C)C)C(=O)O)n(C)c(=O)c3c2ccn3Cc2cccc(F)c2)ccc2c1CCCO2 (stereo not drawn)", 1.90),
    ("Cc1ccc(-c2c(C(OC(C)(C)C)C(=O)O)n(C)c(=O)c3c2ccn3Cc2ccc(F)c(F)c2)cc1 (stereo not drawn)", 1.90),
    ("Cn1c(C(OC(C)(C)C)C(=O)O)c(-c2ccc(Cl)cc2)c2ccn(Cc3ccc(F)cc3)c2c1=O (stereo not drawn)", 2.20),
    ("Cc1ccc(-c2c([C@H](OC(C)(C)C)C(=O)O)n(C)c(=O)c3c2ccn3Cc2ccc(F)cc2)cc1", 1.60),
    ("Cn1c(C(OC(C)(C)C)C(=O)O)c(-c2ccc(Cl)cc2)c2c(Br)cn(Cc3ccccc3)c2c1=O (stereo not drawn)", 2.88),
    ("Cn1c(C(OC(C)(C)C)C(=O)O)c(-c2ccc(Cl)cc2)c2ccn(Cc3ccccc3)c2c1=O (stereo not drawn)", 2.34),
    ("Cc1cn(Cc2ccccc2)c2c(=O)n(C)c(C(OC(C)(C)C)C(=O)O)c(-c3ccc(Cl)cc3)c12 (stereo not drawn)", 3.21),
]
